# SUBJECT_OF_TEST: Alpha-glucosidase (Saccharomyces cerevisiae S288c, UniProt P53341+P38158+P07265)
# PROCEDURE_DETAILS: Inhibition of Saccharomyces cerevisiae alpha-glucosidase assessed as release of p-nitrophenol using pNPG as substrate preincubated for 15 mins followed by substrate addition and measured after 5 mins by spectrophotometric assay
# Assay type: protein assay
PROPERTY_MEASURED: IC50 (µM)

MOLECULE	VAL
CC(C)=CCC1=C2O[C@]34C(=C[C@@H]5C[C@H]3C(C)(C)O[C@@]4(CC=C(C)C)C5=O)C(=O)[C@@H]2C(O)C2=C1OC(C)C=C2 (stereo partly drawn)	140.95
CO[C@@H]1C2C(=O)[C@H]3C(=C(CC=C(C)C)C4=C(C=CC(C)O4)C3O)O[C@@]23[C@H]2C[C@@H]1C(=O)[C@]3(C/C=C(\C)C(=O)O)OC2(C)C (stereo partly drawn)	136.35

====

# SUBJECT_OF_TEST: Alpha-glucosidase (Saccharomyces cerevisiae S288c, UniProt P53341+P38158+P07265)
# PROCEDURE_DETAILS: Inhibition of yeast alpha-glucosidase assessed as release of p-nitrophenol using PNPG as substrate preincubated for 10 mins followed by substrate addition and measured after 35 mins by microplate photometer analysis
# Format: protein assay
PROPERTY_MEASURED: IC50 (µM)

Recorded results for 2 compounds are shown here.
> print(dat)
                               given.smiles                           subject.of.test   val
1  C=C(C)/C=C/c1c(O)cc2oc3cc(O)c(OC)c(C/C=C(\C)CC=C(C)C)c3c(=O)c2c1O  Alpha-glucosidase (Saccharomyces cerevisiae S288c, UniProt P53341+P38158+P07265)  10.7
2  C=C(C)/C=C/c1c(OC)cc(O)c2c(=O)c3ccc(O)c(O)c3oc12  Alpha-glucosidase (Saccharomyces cerevisiae S288c, UniProt P53341+P38158+P07265)   9.4

P: COc1cc(O)c2c(=O)c3c(C/C=C(\C)CCC=C(C)C)c(OC)c(O)cc3oc2c1
Q: C=C(C)/C=C/c1c(O)cc2oc3c(/C=C/C(=C)C)c(O)c(OC)cc3c(=O)c2c1O
R: C=C(C)/C=C/c1c(O)cc2oc3cc(O)c(O)c(C/C=C(\C)CC=C(C)C)c3c(=O)c2c1O
Task: Could you please order the items by IC50, going from the lowest number to the highest? Could you list the labels in the order requested?
Result: R, P, Q

====

# SUBJECT_OF_TEST: Alpha-glucosidase (Saccharomyces cerevisiae S288c, UniProt P53341+P38158+P07265)
# PROCEDURE_DETAILS: Inhibition of Saccharomyces cerevisiae alpha-glucosidase using PNPG as substrate incubated for 30 mins by spectrophotometric assay
# Type: protein assay
PROPERTY_MEASURED: IC50 (µM)

Recorded results for 6 compounds are shown here.
> print(dat)
                                   compound                           subject.of.test  property.measured   val
1  C=C(C)/C=C/c1c(OC)cc2c(c1O)Cc1c(O)ccc(O)c1O2  Alpha-glucosidase (Saccharomyces cerevisiae S288c, UniProt P53341+P38158+P07265)               IC50  50.5
2  C=C(C)/C=C/c1c(O)cc2oc3cc(O)c(OC)c(CCC(C)(C)O)c3c(=O)c2c1O  Alpha-glucosidase (Saccharomyces cerevisiae S288c, UniProt P53341+P38158+P07265)               IC50  29.9
3  C=C(C)C1Cc2c(c(O)cc3oc4cc(O)c(CC=C(C)C)c(O)c4c(=O)c23)O1 (stereo unspecified) [MANGOSTENONE G]  Alpha-glucosidase (Saccharomyces cerevisiae S288c, UniProt P53341+P38158+P07265)               IC50    45
4  CC(C)=CC/C(C)=C/Cc1c(O)cc2oc3c(O)ccc(O)c3c(=O)c2c1O  Alpha-glucosidase (Saccharomyces cerevisiae S288c, UniProt P53341+P38158+P07265)               IC50   6.9
5  C=C(C)/C=C/c1c(OC)c(O)cc2oc3cc4c(c(O)c3c(=O)c12)C=CC(C)(C)O4  Alpha-glucosidase (Saccharomyces cerevisiae S288c, UniProt P53341+P38158+P07265)               IC50  34.2
6  C=C(C)/C=C/c1c(OC)cc2c(c1O)Cc1cccc(O)c1O2  Alpha-glucosidase (Saccharomyces cerevisiae S288c, UniProt P53341+P38158+P07265)               IC50  58.5

I: C=C(C)/C=C/c1c(OC)c(O)cc2oc3cc4c(c(O)c3c(=O)c12)CC(O)C(C)(C)O4 (stereo unspecified)
II: C=C(C)/C=C/c1ccc2oc3c(O)cc(OC)c(CC=O)c3c(=O)c2c1O
III: C=C(C)/C=C/c1c(O)cc2oc3cc(O)c(O)c(/C=C/C(=C)C)c3c(=O)c2c1O
Task: Could you please order the items by IC50, going from the lowest number to the highest? Could you list the labels in the order requested?
Result: III, I, II

1: C=C(C)/C=C/c1c(OC)c(O)cc2oc3cc4c(c(O)c3c(=O)c12)C=C(O)C(C)(C)O4
2: C=C(C)/C=C/c1c(O)c(CC=C(C)C)c2oc3c(O)cccc3c(=O)c2c1O
Task: Looking at recorded values for IC50, does 1 or 2 come in lower? To answer, give the label that identifies your chosen option.
Result: 2
